So I've got a bunch of molecules here, and I need their pIC50 values.
- TARGET OF ASSAY: α p38 (Homo sapiens)
- Sequence (Q16539 whole entry): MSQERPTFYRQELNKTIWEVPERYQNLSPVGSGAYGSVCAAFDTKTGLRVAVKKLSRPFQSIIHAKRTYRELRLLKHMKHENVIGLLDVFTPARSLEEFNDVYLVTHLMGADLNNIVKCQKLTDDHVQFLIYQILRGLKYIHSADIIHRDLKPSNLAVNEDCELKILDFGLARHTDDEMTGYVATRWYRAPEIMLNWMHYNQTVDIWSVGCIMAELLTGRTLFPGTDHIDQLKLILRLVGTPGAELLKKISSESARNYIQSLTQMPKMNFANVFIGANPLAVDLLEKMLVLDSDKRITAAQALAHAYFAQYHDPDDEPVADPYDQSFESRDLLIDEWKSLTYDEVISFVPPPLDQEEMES
- TEST SUMMARY: p38 MAP kinase inhibitory activity (33P-ATP / myelin basic protein filter assay)
- Assay type: biochemical
- PARTICULARS: MKK6-activated α p38, MBP substrate, 50 min reaction
Field pIC50 (float): negative decimal logarithm of the concentration in molar.

Form: Entry = O=[N+]([O-])c1ccc2[nH]cc(CCc3ccncc3)c2c1 [Example 6, 5-Nitro-3-(2-(4-pyridyl)ethyl)indole] | System = α p38 (Homo sapiens) | pIC50 = ____
3.52

Form: Entry = CC(=O)Nc1ccc2[nH]cc(CCc3ccncc3)c2c1 [Example 7, 5-Acetamido-3-(2-(4-pyridyl)ethyl)indole] | System = α p38 (Homo sapiens) | pIC50 = ____
3.19

Form: Entry = Clc1nccc(CCc2c[nH]c3ccccc23)n1 [Example 22] | System = α p38 (Homo sapiens) | pIC50 = ____
3.92

Form: Entry = Cc1cccc2[nH]cc(CCc3ccncc3)c12 [Example 9, 4-Methyl-3-(2-(4-pyridyl)ethyl)indole] | System = α p38 (Homo sapiens) | pIC50 = ____
3.95
